Assignment: determine reported remaining activity at 5000 µM for the given compounds.
- subjectOfTest: SyAcnB (Synechocystis sp. PCC 6803 aconitase B) (Synechocystis sp. PCC 6803, UniProt P74582)
- Construct: gene acnB; full-length, synthetic gene in pGEX6P-1 (BamHI-XhoI), GST tag (elution with glutathione, no cleavage described), E. coli DH5alpha
- Sequence (P74582 whole entry): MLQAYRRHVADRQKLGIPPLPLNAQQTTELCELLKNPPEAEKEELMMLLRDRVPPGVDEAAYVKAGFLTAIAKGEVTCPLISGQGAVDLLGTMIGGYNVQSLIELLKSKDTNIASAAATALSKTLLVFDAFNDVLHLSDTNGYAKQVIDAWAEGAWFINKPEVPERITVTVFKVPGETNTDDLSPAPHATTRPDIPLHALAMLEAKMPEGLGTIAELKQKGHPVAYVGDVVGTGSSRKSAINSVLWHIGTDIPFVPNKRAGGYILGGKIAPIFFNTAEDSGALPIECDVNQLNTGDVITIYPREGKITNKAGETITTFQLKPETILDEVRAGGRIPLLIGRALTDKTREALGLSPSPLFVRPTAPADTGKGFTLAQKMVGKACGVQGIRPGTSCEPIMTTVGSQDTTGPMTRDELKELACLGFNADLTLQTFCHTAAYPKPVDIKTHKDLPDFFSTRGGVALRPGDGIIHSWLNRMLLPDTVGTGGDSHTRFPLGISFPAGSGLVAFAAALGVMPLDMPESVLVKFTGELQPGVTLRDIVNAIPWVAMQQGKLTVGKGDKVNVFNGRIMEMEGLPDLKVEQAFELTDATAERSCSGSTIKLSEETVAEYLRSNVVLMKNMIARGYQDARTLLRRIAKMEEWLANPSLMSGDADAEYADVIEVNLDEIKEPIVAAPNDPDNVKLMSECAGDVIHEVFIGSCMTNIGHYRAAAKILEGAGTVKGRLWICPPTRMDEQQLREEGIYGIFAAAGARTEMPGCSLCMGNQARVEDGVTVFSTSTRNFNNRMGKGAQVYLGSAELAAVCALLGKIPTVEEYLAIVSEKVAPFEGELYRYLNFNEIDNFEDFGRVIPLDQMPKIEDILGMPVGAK
- assay: cis-aconitate formation, A240
- Type: biochemical
- assaySetup: read-out: % residual activity at 5 mM
Answers are plain numbers, in %.

Below are worked cases with known answers.
compound | measurementLabel | observed
N[C@@H](CC(=O)O)C(=O)O [L-aspartate] | remaining activity at 5000 µM | 84
N[C@@H](CCC(=O)O)C(=O)O [L-glutamate] | remaining activity at 5000 µM | 85
CC(=O)C(=O)O [pyruvate] | remaining activity at 5000 µM | 69
NC(=O)CC[C@H](N)C(=O)O [L-glutamine] | remaining activity at 5000 µM | 81

Now, please, on to the next compound.
query: Respond only with remaining activity at 5000 µM recorded for O=C(O)CCC(=O)C(=O)O [2-OG]
result: 72
